Tested on: CD2F1 mice, L1210 leukemia ip, survival T/C
Experiment: NCI In Vivo Anticancer Drug Screen. Data for tumor model L1210 Leukemia (intraperitoneal) in CD2F1 (CDF1) mice
Conditions: endpoint: mean survival time; dose: 200.0 mg/kg/injection; schedule: Q04DX003 (ip); vehicle: Klucel (hydroxypropylcellulose) (HPC); higher = longer survival
Inconclusive results and toxic doses are left out.
Record form. Attribute: T/C. Fill in for each entry.

Example compounds with recorded T/C:
[
  {
    "structure": "O=C1CN=C(c2ccccn2)c2cc(Br)ccc2N1",
    "T/C": "104 % of control"
  },
  {
    "structure": "Cc1ccc2c(/C=C/c3ccc(N(C)C)cc3)ccnc2c1",
    "T/C": "104 % of control"
  }
]

Hey, can you go through the list below and give me T/C for every item?
1. CCOC(=O)/C=C/c1ccc(O)cc1
2. O=C(N/N=C/c1cccc(Cl)c1)c1ccccc1
3. C/C=C(\NC1CCCCC1)C(=O)c1ccccc1

1. 98 % of control
2. 94 % of control
3. 100 % of control

What T/C value was documented for this compound, O=c1cc(-c2ccccc2)ss1 ? 100 % of control

* * *

Record form. Attribute: T/C. Fill in for each entry.
System: CD2F1 mice, L1210 leukemia ip, survival T/C
Assay: NCI In Vivo Anticancer Drug Screen. Data for tumor model L1210 Leukemia (intraperitoneal) in CD2F1 (CDF1) mice
Conditions: endpoint: mean survival time; dose: 400.0 mg/kg/injection; schedule: Q04DX003 (ip); vehicle: saline with Tween-80; higher = longer survival
Inconclusive results and toxic doses are left out.

Example compounds with recorded T/C:
[
  {
    "compound": "CCCCCCCCCCCCCCCCCC(=O)NNCCO",
    "systemTested": "CD2F1 mice, L1210 leukemia ip, survival T/C",
    "T/C": "91 % of control"
  },
  {
    "compound": "COC(=O)c1cc2c3ccccc3ncc2c2ccccc12",
    "systemTested": "CD2F1 mice, L1210 leukemia ip, survival T/C",
    "T/C": "89 % of control"
  },
  {
    "compound": "CC12CCC3C(CCC4CC(O)CCC43C)C1CCC2=O (centres undefined)",
    "systemTested": "CD2F1 mice, L1210 leukemia ip, survival T/C",
    "T/C": "97 % of control"
  },
  {
    "compound": "COC(=O)c1ccccc1C=C(c1ccc([N+](=O)[O-])cc1)c1ccc([N+](=O)[O-])cc1",
    "systemTested": "CD2F1 mice, L1210 leukemia ip, survival T/C",
    "T/C": "88 % of control"
  },
  {
    "compound": "CCCC(C)(C)O",
    "systemTested": "CD2F1 mice, L1210 leukemia ip, survival T/C",
    "T/C": "101 % of control"
  },
  {
    "compound": "Nc1ccc2scnc2c1",
    "systemTested": "CD2F1 mice, L1210 leukemia ip, survival T/C",
    "T/C": "101 % of control"
  }
]

Hey, can you go through the list below and give me T/C for every item?
1. O=C1c2cccc(Oc3ccccc3)c2C(=O)c2cccc(Oc3ccccc3)c21
2. C(=C\c1ccc2ccccc2n1)/c1ccc2c(c1)OCO2
3. O=C(OCC(OC(=O)c1ccccc1)C1OC(c2ccccc2)OC1C(COC(=O)c1ccccc1)OC(=O)c1ccccc1)c1ccccc1 (centres undefined)

1: 94 % of control; 2: 101 % of control; 3: 97 % of control

* * *

System: CD2F1 mice, L1210 leukemia ip, survival T/C
Assay: NCI In Vivo Anticancer Drug Screen. Data for tumor model L1210 Leukemia (intraperitoneal) in CD2F1 (CDF1) mice
Conditions: endpoint: mean survival time; dose: 50.0 mg/kg/injection; schedule: Q01DX009 (ip); vehicle: saline with Tween-80; higher = longer survival
Inconclusive results and toxic doses are left out.
Record form. Attribute: T/C. Fill in for each entry.

Hey, can you go through the list below and give me T/C for every item?
1. CCCCC#CC1CCCC1 (tested in a mixture with another compound)
2. C=CCN(CC=C)C(=O)Nc1ccc(C)c(C)c1
3. NNC(=O)c1cc(Cl)cc(C(=O)NN)n1
4. O=C(NNC(=S)Nc1cccc(C(F)(F)F)c1)c1ccncc1
5. N\C([S-])=N/N=C\C(=N/N=C(\N)[S-])C(O)C(O)C(O)CO.[Pd+2] (stereo not given)

1: 103 % of control; 2: 96 % of control; 3: 97 % of control; 4: 88 % of control; 5: 112 % of control

Hey, can you go through the list below and give me T/C for every item?
1. CCCC/C=C/C1CCCCO1 (stereo not given)
2. CC#CC(=O)SCCNC(=O)CC(C)(C)C
3. CC(C)NC(=O)C1C=C2c3cccc4c3C(CN4)CC2N(C)C1 (stereo not given)
4. O=S(=O)(Cl)C(Cl)(Cl)Cl
5. CC1CCCCC1O (stereo not given)

94 % of control
96 % of control
93 % of control
102 % of control
103 % of control

* * *

Record form. Attribute: T/C. Fill in for each entry.
Tested on: CD2F1 mice, L1210 leukemia ip, survival T/C
Assay: NCI In Vivo Anticancer Drug Screen. Data for tumor model L1210 Leukemia (intraperitoneal) in CD2F1 (CDF1) mice
Settings: endpoint: mean survival time; dose: 100.0 mg/kg/injection; schedule: Q01DX001 (ip); vehicle: saline with Tween-80; higher = longer survival
Inconclusive results and toxic doses are left out.

[
  {
    "molecule": "O=S(=O)(F)c1ccc(-c2cc(Cl)c3cc(F)ccc3n2)cc1",
    "T/C": "98 % of control"
  }
]

Hey, can you go through the list below and give me T/C for every item?
1. CC(=O)c1cccc(OC(=O)c2ccccc2)c1
2. CC1SCCS1
3. N/N=C\C(=N/N)C(O)C(O)C(O)CO (stereo not given)
4. CN1CC(=O)C(=N)C1=S

1: 104 % of control; 2: 95 % of control; 3: 87 % of control; 4: 90 % of control

* * *

Record form. Attribute: T/C. Fill in for each entry.
Test system: CD2F1 mice, L1210 leukemia ip, survival T/C
Test: NCI In Vivo Anticancer Drug Screen. Data for tumor model L1210 Leukemia (intraperitoneal) in CD2F1 (CDF1) mice
Details: endpoint: mean survival time; dose: 25.0 mg/kg/injection; schedule: Q04DX002 (ip); vehicle: saline with Tween-80; higher = longer survival
Toxic doses and inconclusive results are not listed.

[
  {
    "compound": "O=C(O)CCC(=O)c1ccc(Cl)cc1",
    "measuredQuantity": "T/C",
    "observedMeasurement": "97 % of control"
  },
  {
    "compound": "Cc1ccc(S(=O)(=O)C[n+]2ccc(C(=O)c3ccccc3)cc2)cc1",
    "measuredQuantity": "T/C",
    "observedMeasurement": "90 % of control"
  },
  {
    "compound": "NC(=S)NC(=S)Nc1ccc(Cl)cc1",
    "measuredQuantity": "T/C",
    "observedMeasurement": "98 % of control"
  },
  {
    "compound": "Cc1ccc(S(=O)(=O)ON/N=C2\\C(=O)C3CCC2C3)cc1 (stereo not given)",
    "measuredQuantity": "T/C",
    "observedMeasurement": "100 % of control"
  }
]

We now examine a further compound.
What T/C value was documented for this compound, C=C(Cc1ccccc1)C(=O)O ? 92 % of control

* * *

Record form. Attribute: T/C. Fill in for each entry.
Tested on: CD2F1 mice, L1210 leukemia ip, survival T/C
Test: NCI In Vivo Anticancer Drug Screen. Data for tumor model L1210 Leukemia (intraperitoneal) in CD2F1 (CDF1) mice
Conditions: endpoint: mean survival time; dose: 400.0 mg/kg/injection; schedule: Q01DX009 (ip); vehicle: saline with Tween-80; higher = longer survival
Inconclusive results and toxic doses are left out.

[
  {
    "compound": "CCCCCCCC(=O)Nc1cc(C(F)(F)F)ccc1Cl",
    "T/C": "94 % of control"
  },
  {
    "compound": "NC(=O)C(Cl)(Cl)Cl",
    "T/C": "103 % of control"
  },
  {
    "compound": "O=C1CCC2=C(CCC3(C2)OCCO3)N1",
    "T/C": "90 % of control"
  },
  {
    "compound": "Cc1ccc(C(=O)c2cnc(C)n2Cc2ccccc2)cc1",
    "T/C": "97 % of control"
  },
  {
    "compound": "CCOCc1cccc2ccccc12",
    "T/C": "94 % of control"
  },
  {
    "compound": "C=CCOC(=O)C1c2ccccc2Cc2ccccc21",
    "T/C": "92 % of control"
  },
  {
    "compound": "CCCCC/C(C)=C(\\C)c1cc(OC)cc(OC)c1",
    "T/C": "91 % of control"
  },
  {
    "compound": "COB1OB(OC)OB(OC)O1",
    "T/C": "93 % of control"
  },
  {
    "compound": "O/N=C1/CCCC/C1=C/c1ccccc1",
    "T/C": "97 % of control"
  },
  {
    "compound": "N#CC(NC(=O)NCCO)c1ccccc1 (stereo not given)",
    "T/C": "92 % of control"
  }
]

Hey, can you go through the list below and give me T/C for every item?
1. COc1ccc(Cl)cc1C(c1cc(Cl)ccc1OC)C(Cl)(Cl)Cl
2. Cc1ccc(S(=O)(=O)OCC(C)C)cc1
3. COc1cc(OC)cc(C(c2nccc3cc(OC)c(OC)cc23)C(O)(C(F)(F)F)C(F)(F)F)c1 (stereo not given)
4. CCN(C(=O)Nc1cc([N+](=O)[O-])ccc1C)c1cc(C)ccc1OC
5. CCOC(=O)Nc1cc(NC(=O)OCC)cc([N+](=O)[O-])c1
6. CCC/C(C)=N/Nc1ccc([N+](=O)[O-])cc1
7. COC(=O)[C@]1(C)CCC[C@]2(C)c3cc(C(C)=O)c(C(C)C)cc3CC[C@@H]12

["104 % of control", "98 % of control", "89 % of control", "94 % of control", "106 % of control", "94 % of control", "100 % of control"]

Hey, can you go through the list below and give me T/C for every item?
1. Cc1ccc(S(=O)(=O)Nc2ccc(I)cc2F)cc1
2. S=C1SCCN1C1CCCCC1
3. Cc1ccc(NC(=O)c2ccc(C(=O)Nc3ccc(C)cc3)cc2)cc1
4. Nc1nnnn1-c1cccc(Cl)c1

1. 97 % of control
2. 93 % of control
3. 93 % of control
4. 106 % of control

Hey, can you go through the list below and give me T/C for every item?
1. Cc1ccc(NC(=O)/C=C/C(=O)O)cc1
2. Cc1cc(N=Nc2ccccc2)cc(C)c1N

1: 103 % of control; 2: 98 % of control

Hey, can you go through the list below and give me T/C for every item?
1. Cc1ccc(S(=O)(=O)N(C)N=O)cc1
2. O=C(O)CCC(=O)Nc1ccccc1C(=O)O

102 % of control
96 % of control

Data provenance: PubChem BioAssay AID256
